# Subject Of Test: PRMT5/MEP50 (Homo sapiens)
# Construct: Flag-PRMT5; made in house; host or cells: Spodoptera frugiperda (SF9), baculovirus
# Assay Protocol: PRMT5 Biochemical Assay (PRMT5/MEP50 enzyme assay on histone H4 peptide substrate, 3H-SAM Flashplate)
# Assay Context: PRMT5 biochemical assay; read-out: Biochemical IC50
Result Type: IC50

These recorded examples may help you get a feel for the data.
>  <Molecule>
CC(=O)N1CCC(Nc2cc(C(=O)N(C)C[C@H](O)CN3CCc4ccccc4C3)ccn2)CC1

>  <Subject Of Test>
PRMT5/MEP50 (Homo sapiens)

>  <IC50>
< 100 nM

$$$$
>  <Molecule>
OC(COc1cccc(-c2ccc3ncsc3c2)c1)CN1CCc2ccccc2C1 (centres unmarked)

>  <Subject Of Test>
PRMT5/MEP50 (Homo sapiens)

>  <IC50>
101 to 1000 nM

$$$$
>  <Molecule>
O=C(CC1NC(N2CCN(c3ccccc3)CC2)=NC1=O)Nc1cccc(Cl)c1 (centres unmarked)

>  <Subject Of Test>
PRMT5/MEP50 (Homo sapiens)

>  <IC50>
1000 to 10000 nM

$$$$

What does the record list as IC50 for O=C(CC1NC(N2CCN(Cc3ccccc3)CC2)=NC1=O)Nc1ccc(Cl)cc1 (centres unmarked) ?
101 to 1000 nM

What does the record list as IC50 for O=C(CC1NC(N2CCN(c3ccccc3)CC2)=NC1=O)c1cccc(Cl)c1 (centres unmarked) ?
101 to 1000 nM

What does the record list as IC50 for CN(CCN(C)C[C@H]1O[C@@H](n2cnc3c(N)ncnc32)[C@H](O)[C@@H]1O)Cc1ccccc1Cl ?
101 to 1000 nM

What does the record list as IC50 for CN(C)c1cccc2c(S(=O)(=O)N[C@H]3CCN(Cc4ccccc4)C3)cccc12 ?
< 100 nM

What does the record list as IC50 for CCOc1c(C)cc(S(=O)(=O)NCC2CCN(Cc3c(-c4ccccc4)[nH]c4ccccc34)CC2)cc1C ?
101 to 1000 nM

====

# Subject Of Test: PRMT5/MEP50 (Homo sapiens)
# Construct: Flag-PRMT5; made in house; host or cells: Spodoptera frugiperda (SF9), baculovirus
# Assay Protocol: PRMT5 Biochemical Assay (PRMT5/MEP50 enzyme assay on histone H4 peptide substrate, 3H-SAM Flashplate)
# Assay Context: PRMT5 biochemical assay; read-out: Biochemical IC50
pIC50: −log10 of the molar value.
# maps each entry to its pIC50

These recorded examples may help you get a feel for the data.
>  <Compound>
CNCCNC[C@H]1O[C@@H](n2cnc3c(N)ncnc32)[C@H](O)[C@@H]1O

>  <pIC50>
6.00 to 7.00

$$$$
>  <Compound>
O=C(CC1NC(N2CCN(c3ccccc3)CC2)=NC1=O)Nc1ccccc1Br (stereo not shown)

>  <pIC50>
4.30 to 5.00

$$$$
>  <Compound>
Nc1ncnc2c1ncn2[C@@H]1O[C@H](CNCCNCCc2ccc(Cl)cc2)[C@@H](O)[C@H]1O

>  <pIC50>
> 7.00

$$$$

What does the record list as pIC50 for COc1cc(Cl)ccc1NC(=O)CC1NC(N2CCN(c3ccccc3)CC2)=NC1=O (stereo not shown) ?
6.00 to 7.00

====

# Subject Of Test: PRMT5/MEP50 (Homo sapiens, UniProt O14744)
# Construct: Flag-PRMT5; made in house; host or cells: Spodoptera frugiperda (SF9), baculovirus
# Sequence (O14744 with tags, fused parts or gaps): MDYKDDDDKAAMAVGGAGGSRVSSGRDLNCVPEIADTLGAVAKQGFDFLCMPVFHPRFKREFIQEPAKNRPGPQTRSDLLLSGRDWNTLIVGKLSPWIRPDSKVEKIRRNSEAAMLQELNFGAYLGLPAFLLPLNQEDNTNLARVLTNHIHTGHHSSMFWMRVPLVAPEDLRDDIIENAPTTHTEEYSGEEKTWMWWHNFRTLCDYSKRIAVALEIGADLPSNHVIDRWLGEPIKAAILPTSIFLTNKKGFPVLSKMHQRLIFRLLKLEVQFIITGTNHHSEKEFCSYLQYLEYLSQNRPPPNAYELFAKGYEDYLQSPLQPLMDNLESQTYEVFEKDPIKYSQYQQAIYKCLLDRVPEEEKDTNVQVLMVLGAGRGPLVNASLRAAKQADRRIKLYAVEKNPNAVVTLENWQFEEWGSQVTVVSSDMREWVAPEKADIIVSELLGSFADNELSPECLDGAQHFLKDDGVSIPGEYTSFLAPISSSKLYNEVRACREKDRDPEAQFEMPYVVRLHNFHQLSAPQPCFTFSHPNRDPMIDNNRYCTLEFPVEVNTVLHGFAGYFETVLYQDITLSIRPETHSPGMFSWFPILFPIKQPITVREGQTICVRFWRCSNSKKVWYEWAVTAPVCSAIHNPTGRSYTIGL
# Sequence (Q9BQA1 with tags, fused parts or gaps partner limits assumed): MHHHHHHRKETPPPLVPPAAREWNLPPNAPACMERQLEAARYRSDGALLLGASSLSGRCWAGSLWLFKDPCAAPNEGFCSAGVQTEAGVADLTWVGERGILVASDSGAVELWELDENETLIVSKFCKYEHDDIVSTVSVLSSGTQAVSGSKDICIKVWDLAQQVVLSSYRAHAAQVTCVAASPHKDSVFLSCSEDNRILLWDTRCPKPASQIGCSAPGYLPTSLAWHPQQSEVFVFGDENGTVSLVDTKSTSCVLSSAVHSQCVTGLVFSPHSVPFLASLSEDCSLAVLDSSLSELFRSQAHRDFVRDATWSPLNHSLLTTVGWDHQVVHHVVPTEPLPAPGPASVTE
# Assay Protocol: PRMT5 Biochemical Assay (PRMT5/MEP50 enzyme assay on histone H4 peptide substrate, 3H-SAM Flashplate)
# Assay Context: PRMT5 biochemical assay; read-out: Biochemical IC50
pIC50: −log10 of the molar value.
Result Type: pIC50

>  <Compound>
CN1CCC(Nc2ccnc(C(=O)NC[C@H](O)CN3CCc4ccccc4C3)c2)CC1

>  <Subject Of Test>
PRMT5/MEP50 (Homo sapiens, UniProt O14744)

>  <pIC50>
> 7.00

$$$$
>  <Compound>
COc1ccc(NC(=O)CC2NC(N3CCN(c4ccccn4)CC3)=NC2=O)cc1 (stereo not shown)

>  <Subject Of Test>
PRMT5/MEP50 (Homo sapiens, UniProt O14744)

>  <pIC50>
5.00 to 6.00

$$$$
>  <Compound>
CCC(COC)NCCN(C)C[C@H]1O[C@@H](n2cnc3c(N)ncnc32)[C@H](O)[C@@H]1O (stereo partly shown)

>  <Subject Of Test>
PRMT5/MEP50 (Homo sapiens, UniProt O14744)

>  <pIC50>
6.00 to 7.00

$$$$
>  <Compound>
CN(CCNCc1ccc(Cl)c(Cl)c1)C[C@H]1O[C@@H](n2cnc3c(N)ncnc32)[C@H](O)[C@@H]1O

>  <Subject Of Test>
PRMT5/MEP50 (Homo sapiens, UniProt O14744)

>  <pIC50>
6.00 to 7.00

$$$$

What does the record list as pIC50 for COc1ccccc1C(=O)CC1NC(N2CC=C(c3ccccc3)CC2)=NC1=O (stereo not shown) ?
6.00 to 7.00

What does the record list as pIC50 for CCOC(=O)c1ccc(NC(=O)CC2NC(N3CCN(c4ccccn4)CC3)=NC2=O)cc1 (stereo not shown) ?
5.00 to 6.00

What does the record list as pIC50 for O=C(NCC(O)CN1CCc2ccccc2C1)c1ccc(OC2CCOC2)cc1 (stereo not shown) ?
> 7.00
